Test: Pharmacokinetics of TXA in swine plasma after IV and IM administration
Type: in vivo, domestic pigs
Conditions: pig, plasma, im, 1 g; read-out: Cmax range
Protocol: Studies of pharmacokinetics (PK) and pharmacodynamics (PD) of TXA were performed in swine conducted in compliance with Good Laboratory Practice (GLP) standards. All facilities and activities were accredited in accordance with GLP and ISO9001 (2015). Eighteen domestic pigs were assigned to four test groups. Group 1: Control, IM administered with vehicle (0.9% NaCl, pH 3-4, w/v), two animals were administered 2 mL vehicle, one animal administered 4 mL vehicle. […]
readoutLabel: Cmax

Consider the molecule `NC[C@H]1CC[C@H](C(=O)O)CC1` and give its measured Cmax.
20100 to 34800 ng/mL
